Biological target: γ-secretase (cleavage of Notch) (Homo sapiens, UniProt P49768)
Construct: endogenous in cells
Test: Notch cellular assay (luciferase reporter U2OS cells)
Conditions: U2OS luciferase reporter cells
pIC50: −log10 of the molar value.
Threshold rule: pIC50 greater than or equal to 6 is YES; below that, NO.

>  <COMPOUND>
CC1CCCCC1N(Cc1ccc(C(=O)NCCN(C)C)cc1)S(=O)(=O)c1ccc(Cl)cc1 (stereo not shown)

>  <GROUP>
NO

$$$$
>  <COMPOUND>
CC[C@@H](C1CCCC1)N(Cc1ccc(C(=O)OC)cc1)S(=O)(=O)c1ccc(Cl)cc1

>  <GROUP>
NO

$$$$
>  <COMPOUND>
O=C(O)c1ccc(CN(C2CCCCC2F)S(=O)(=O)c2ccc(Cl)cc2)cc1 (single isomer, unassigned) [Example 58]

>  <GROUP>
NO

$$$$
>  <COMPOUND>
CC1CCCCC1N(Cc1ccc(C(=O)NC(C)(C)CO)cc1)S(=O)(=O)c1ccc(Cl)cc1 (stereo not shown)

>  <GROUP>
NO

$$$$
>  <COMPOUND>
O=C(O)c1ccc(CN(C2CCCCC2F)S(=O)(=O)c2ccc(Cl)cc2)cc1 (single isomer, unassigned) [Example 59]

>  <GROUP>
NO

$$$$
>  <COMPOUND>
COC(=O)c1ccc(CN(C2CCCCC2C)S(=O)(=O)c2ccc(Cl)cc2)cc1 (stereo not shown)

>  <GROUP>
NO

$$$$
>  <COMPOUND>
CC1CCCCC1N(Cc1ccc(C(=O)NC(C)(C)C(=O)O)cc1)S(=O)(=O)c1ccc(Cl)cc1 (stereo not shown)

>  <GROUP>
NO

$$$$
>  <COMPOUND>
COC[C@@H](C)NC(=O)c1ccc(CN(C2CCCCC2C)S(=O)(=O)c2ccc(Cl)cc2)cc1 (stereo partly shown) [Example 14]

>  <GROUP>
YES

$$$$

*Q* Say whether CC1CCCCC1N(Cc1ccc(C(=O)NCCC(=O)O)cc1)S(=O)(=O)c1ccc(Cl)cc1 (stereo not shown) shows pIC50 of 6 or more.
*A* NO

*Q* Can CC(=O)CNC(=O)c1ccc(CN(C2CCCCC2C)S(=O)(=O)c2ccc(Cl)cc2)cc1 (stereo not shown) be said to have pIC50 at or above 6?
*A* YES

*Q* Quick check, pIC50 >= 6? COC[C@@H](C)NC(=O)c1ccc(CN(C2CCCCC2C)S(=O)(=O)c2ccc(Cl)cc2)cc1 (stereo partly shown) [Example 46]
*A* YES

---

Known pIC50 of a selection of compounds
Target: T1, γ-secretase (cleavage of APP, Aβ42) (Homo sapiens, UniProt P49768)
T1 construct: endogenous in cells; host or cells: HEK AP-GL-T16 luciferase reporter cells (tetracycline-induced APP substrate)
Experiment: Aβ (1-42) cellular assay (Aβ ELISA, HEK AP-GL-T1 6 cells)
Assay type: cell-based
Settings: cellular Aβ42 ELISA, 24 h compound treatment
Scale for pIC50: -log10 of concentration given in mol/L; no unit attached.

>  <COMPOUND>
COC(=O)c1ccc(CN(C2CCCC(C)C2)S(=O)(=O)c2ccc(Cl)cc2)cc1 (centres unmarked)

>  <pIC50>
8.02

$$$$

Summary for this compound, COC(=O)c1ccc(CN(C2CCCCC2C)S(=O)(=O)c2ccc(Cl)cc2)cc1 (centres unmarked) : pIC50 is 8.47

Lab book: pIC50 of COC(=O)c1ccc(CN([C@H]2CCCC[C@@H]2O)S(=O)(=O)c2ccc(Cl)cc2)cc1 noted as 6.70

Lab note: CC1CCCCC1N(Cc1ccc(C(=O)NC[C@H](C)O)cc1)S(=O)(=O)c1ccc(Cl)cc1 (some centres unmarked) gave pIC50 of 9.06

Record CN(C)CCNC(=O)c1ccc(CN(C2CCCCC2F)S(=O)(=O)c2ccc(Cl)cc2)cc1 (centres unmarked) . Reported pIC50: 6.89

// field: pIC50; key: COC(=O)c1ccc(CN(C2CCCCC2F)S(=O)(=O)c2ccc(Cl)cc2)cc1 (centres unmarked) ; value = 8.39

pIC50 for COC(=O)c1ccc(CN(C2CCCCC2O)S(=O)(=O)c2ccc(Cl)cc2)cc1 (centres unmarked) is 7.75

pIC50 recorded for this compound, CC1CCCCC1N(Cc1ccc(C(=O)NCCC(F)(F)F)cc1)S(=O)(=O)c1ccc(Cl)cc1 (centres unmarked) , is 8.37

---

Target: T1, γ-secretase (Notch cleavage activity) (Homo sapiens, UniProt P49768)
T1 construct: endogenous in cells; host or cells: SUP-T1 cells
Test: Cleaved Notch1 Sandwich ELISA (SUP-T1 cell line)
Type: cell-based
Settings: ratio Notch Elisa IC50 to Aβ42 IC50
Notch Elisa/Aβ42 below 300 gives N; Notch Elisa/Aβ42 at or above it gives Y.

Previously resolved entries follow.
>  <COMPOUND>
C[C@@H](CO)NC(=O)c1ccc(CN(C2CCCCC2C(F)(F)F)S(=O)(=O)c2ccc(Cl)cc2)cc1 (stereo partly drawn)

>  <TESTED_ON>
T1, γ-secretase (Notch cleavage activity) (Homo sapiens, UniProt P49768)

>  <GROUP>
N

$$$$
>  <COMPOUND>
CN(C)CCNC(=O)c1ccc(CN(C2CCCCC2F)S(=O)(=O)c2ccc(Cl)cc2)cc1.Cl (stereo not drawn)

>  <TESTED_ON>
T1, γ-secretase (Notch cleavage activity) (Homo sapiens, UniProt P49768)

>  <GROUP>
N

$$$$

*Q* Test whether the compound COCC(C)NC(=O)c1ccc(CN(C2CCCCC2F)S(=O)(=O)c2ccc(Cl)cc2)cc1 (stereo not drawn) records Notch Elisa/Aβ42 of 300 or higher.
*A* N

*Q* Assess whether reported Notch Elisa/Aβ42 for C[C@H](CO)NC(=O)c1ccc(CN(C2CCCC(C(F)(F)F)C2)S(=O)(=O)c2ccc(Cl)nc2)cc1 (stereo partly drawn) sits at 300 or higher.
*A* N

*Q* Record CC(=O)CNC(=O)c1ccc(CN(C2CCCCC2C)S(=O)(=O)c2ccc(Cl)cc2)cc1 (stereo not drawn) ; criterion: Notch Elisa/Aβ42 no lower than 300. Met?
*A* Y

*Q* Is the recorded value of Notch Elisa/Aβ42 equal to or greater than 300 for this compound? C[C@H](CO)NC(=O)c1ccc(CN(C2CCCCC2F)S(=O)(=O)c2ccc(Cl)cc2)c(F)c1F (stereo partly drawn)
*A* N

---

QUANTITY_KIND: melting point

>  <MOLECULE>
O=C(O)c1ccc(CN(C2CCOCC2)S(=O)(=O)c2ccc(Cl)cc2)cc1 [Example 1]

>  <melting point>
218 to 219 °C

$$$$
>  <MOLECULE>
CC[C@H](C1CCCC1)N(Cc1ccc(C(=O)OC)cc1)S(=O)(=O)c1ccc(Cl)cc1 [Example 22]

>  <melting point>
81 to 83 °C

$$$$
>  <MOLECULE>
CC1CCCCC1N(Cc1ccc(C(=O)NCCO)cc1)S(=O)(=O)c1ccc(Cl)cc1 (centres unmarked) [Example 6]

>  <melting point>
105 to 107 °C

$$$$
>  <MOLECULE>
CS(=O)(=O)c1ccc(CN(C2CCOCC2)S(=O)(=O)c2ccc(Cl)cc2)cc1 [Example 11]

>  <melting point>
158 to 160 °C

$$$$
>  <MOLECULE>
Cc1ccc(S(=O)(=O)N(Cc2ccc(C#N)cc2F)C2CCCC2)cc1 [Example 29]

>  <melting point>
178 to 179 °C

$$$$
>  <MOLECULE>
COc1ccc(CN(C2CCOCC2)S(=O)(=O)c2ccc(Cl)cc2)cc1C(=O)O [Example 8]

>  <melting point>
174 to 176 °C

$$$$
>  <MOLECULE>
O=S(=O)(c1ccc(Cl)cc1)N(Cc1ccc(OC2CCOCC2)nc1)C1CCOCC1 [Example 13]

>  <melting point>
123 to 125 °C

$$$$

Could you now consider this next molecule?
Briefly, melting point measured for C[C@H](CO)NC(=O)c1ccc(CN(C2CCCCC2F)S(=O)(=O)c2ccc(Cl)cc2)c(F)c1F (some centres unmarked) [Example 77] : 126 to 128 °C

---

Biological target: T1, γ-secretase (cleavage of APP, Aβ42) (Homo sapiens, UniProt P49768)
T1 construct: endogenous in cells; host or cells: HEK AP-GL-T16 luciferase reporter cells (tetracycline-induced APP substrate)
Assay: Aβ (1-42) cellular assay (Aβ ELISA, HEK AP-GL-T1 6 cells)
Assay type: cell-based
Details: at 1 μM (concentration in brackets); read-out: Aβ42 % Inh
Counter-ions that a name gives are not always drawn.
QUANTITY_KIND: inhibition at 1 µM (%)
// units = %; emit number, no label

>  <COMPOUND>
COc1ccc(CN(CC2CCOCC2)S(=O)(=O)c2ccc(Cl)cc2)cc1C(=O)O [Example 17]

>  <inhibition at 1 µM, %>
14

$$$$
>  <COMPOUND>
O=C(O)c1ccc(CN(C2CCCCC2O)S(=O)(=O)c2ccc(Cl)cc2)c(F)c1F (stereo not shown) [Example 67]

>  <inhibition at 1 µM, %>
11

$$$$
>  <COMPOUND>
CC[C@H](C1CCCC1)N(Cc1ccc(C(=O)O)cc1)S(=O)(=O)c1ccc(Cl)cc1 [Example 23]

>  <inhibition at 1 µM, %>
0

$$$$
>  <COMPOUND>
O=C(O)c1ccc(CN([C@H]2CCCC[C@@H]2O)S(=O)(=O)c2ccc(Cl)cc2)cc1 [Example 30]

>  <inhibition at 1 µM, %>
15

$$$$

I looked up COC(=O)c1cc(CN(C2CCOCC2)S(=O)(=O)c2ccc(Cl)cc2)ccc1OC [Example 7] and its inhibition at 1 µM for T1, γ-secretase (cleavage of APP, Aβ42) (Homo sapiens, UniProt P49768) was 0

# lookup: Cc1ccc(S(=O)(=O)N(Cc2ccc(C#N)cc2F)C2CCCC2)cc1 [Example 29] on T1, γ-secretase (cleavage of APP, Aβ42) (Homo sapiens, UniProt P49768), inhibition at 1 µM = 0

Short answer on T1, γ-secretase (cleavage of APP, Aβ42) (Homo sapiens, UniProt P49768) for O=S(=O)(c1ccc(Cl)cc1)N(Cc1ccc(OC2CCOCC2)nc1)C1CCOCC1 [Example 13] , inhibition at 1 µM: 0

Bench note, T1, γ-secretase (cleavage of APP, Aβ42) (Homo sapiens, UniProt P49768): entry CS(=O)(=O)c1ccc(CN(C2CCOCC2)S(=O)(=O)c2ccc(Cl)cc2)cc1 [Example 11] , its inhibition at 1 µM = 0

Note to self: inhibition at 1 µM of COC(=O)c1ccc(CN(CC2CCOCC2)S(=O)(=O)c2ccc(Cl)cc2)cc1 [Example 18] with T1, γ-secretase (cleavage of APP, Aβ42) (Homo sapiens, UniProt P49768) was 94

Response field inhibition at 1 µM (T1, γ-secretase (cleavage of APP, Aβ42) (Homo sapiens, UniProt P49768)) for item COC(=O)c1ccc(CN(C2CCOCC2)S(=O)(=O)c2ccc(Cl)cc2)cc1 [Example 12] : 0

Record for CSc1ccc(CN(C2CCOCC2)S(=O)(=O)c2ccc(Cl)cc2)cc1 [Example 10] under target or system T1, γ-secretase (cleavage of APP, Aβ42) (Homo sapiens, UniProt P49768): inhibition at 1 µM reported as 0

Record N#Cc1ccc(CN(C2CCC2)S(=O)(=O)c2ccc(Cl)cc2)c(F)c1 [Example 26] has T1, γ-secretase (cleavage of APP, Aβ42) (Homo sapiens, UniProt P49768) inhibition at 1 µM equal to 54

Reported inhibition at 1 µM (T1, γ-secretase (cleavage of APP, Aβ42) (Homo sapiens, UniProt P49768)) for entry COC(=O)c1cc(CN(CC2CCOCC2)S(=O)(=O)c2ccc(Cl)cc2)ccc1OC [Example 16] is 0

Observed inhibition at 1 µM, T1, γ-secretase (cleavage of APP, Aβ42) (Homo sapiens, UniProt P49768), Cc1ccc(S(=O)(=O)N(Cc2ccc(C#N)cc2F)C2CCC2)cc1 [Example 27] : 37

# inhibition at 1 µM measured on T1, γ-secretase (cleavage of APP, Aβ42) (Homo sapiens, UniProt P49768) for item CC[C@H](C1CCCC1)N(Cc1ccc(C(=O)OC)cc1)S(=O)(=O)c1ccc(Cl)cc1 [Example 22] = 0

Kindly note: T1, γ-secretase (cleavage of APP, Aβ42) (Homo sapiens, UniProt P49768), O=C(O)c1ccc(CN(C2CCCCC2)S(=O)(=O)c2ccc(F)cc2)cc1 [Example 9] , inhibition at 1 µM value reported: 0

Noted inhibition at 1 µM for O=C(O)c1ccc(CN(CC2CCOCC2)S(=O)(=O)c2ccc(Cl)cc2)cc1 [Example 19] , tested on T1, γ-secretase (cleavage of APP, Aβ42) (Homo sapiens, UniProt P49768): 13

The value of inhibition at 1 µM recorded for CN(C)CCNC(=O)c1ccc(CN(C2CCCCC2F)S(=O)(=O)c2ccc(Cl)nc2)cc1 (stereo not shown) [Example 80, hydrochloride] when tested on T1, γ-secretase (cleavage of APP, Aβ42) (Homo sapiens, UniProt P49768) reads 65

Field inhibition at 1 µM (T1, γ-secretase (cleavage of APP, Aβ42) (Homo sapiens, UniProt P49768)), entry O=C(O)c1ccc(CN(C2CCOCC2)S(=O)(=O)c2ccc(Cl)cc2)cc1 [Example 1] : 6

Cited source for all entries: patent US20140243374A1
